Test System: human IGF-1 receptor (human) (UniProt P08069)
Assay: cell-based or functional assay
Outcome Measure: % (potency at the receptor, assay not named) (%)

{"columns": ["Binder", "Numeric Readout"],
 "data": [
  ["B^1(H5,10Y16L17A24)25-C^1-A^1(H8N18,N21) (ligand) GPEHLCGAHLVDALYLVCGDRGAYGYGSSSRRAPQTGIVDECCHRSCDLRRLENYCN", 0.3],
  ["B^1(A5H10Y16L17)25-C^1-A^1(H8N18N21) (ligand) GPEALCGAHLVDALYLVCGDRGFYGYGSSSRRAPQTGIVDECCHRSCDLRRLENYCN", 2.5],
  ["MIU-35: B^1(H5,10Y16L17)25-C^1-A^1(H8N18,21) (ligand) GPEHLCGAHLVDALYLVCGDRGFYGYGSSSRRAPQTGIVDECCHRSCDLRRLENYCN", 3.2],
  ["GE5W-B^1(A5H10Y16L17)25-C^1-A^1(H8N18N21) (ligand) GEEEEEWGPEALCGAHLVDALYLVCGDRGFYGYGSSSRRAPQTGIVDECCHRSCDLRRLENYCN", 0.3]
]}

# credit: patent US20150274802A1
